- target: Estrogen receptor (Homo sapiens) (UniProt P03372)
- Sequence (P03372 whole entry, looked up): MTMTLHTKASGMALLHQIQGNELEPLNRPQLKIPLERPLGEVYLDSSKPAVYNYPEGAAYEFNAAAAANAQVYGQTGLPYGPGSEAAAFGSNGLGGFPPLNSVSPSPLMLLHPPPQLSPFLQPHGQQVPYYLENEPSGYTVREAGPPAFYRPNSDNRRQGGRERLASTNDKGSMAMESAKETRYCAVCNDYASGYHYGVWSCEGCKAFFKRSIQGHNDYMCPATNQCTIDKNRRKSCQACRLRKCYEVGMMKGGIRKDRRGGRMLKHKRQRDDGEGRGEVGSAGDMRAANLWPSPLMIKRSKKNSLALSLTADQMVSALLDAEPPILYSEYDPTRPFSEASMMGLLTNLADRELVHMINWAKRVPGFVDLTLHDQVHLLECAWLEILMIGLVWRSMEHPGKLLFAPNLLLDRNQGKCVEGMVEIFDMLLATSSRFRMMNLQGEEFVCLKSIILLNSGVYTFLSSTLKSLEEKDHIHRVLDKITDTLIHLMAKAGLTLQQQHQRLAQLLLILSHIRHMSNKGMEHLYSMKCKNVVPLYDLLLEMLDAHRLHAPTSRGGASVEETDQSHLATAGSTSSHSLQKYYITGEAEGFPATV
- assay.details: CCTE_Deisenroth_AIME_384WELL_LUC_Shift: CCTE's 384-well Estrogen Receptor Transactivation Assay with AIME metabolic competence data shift (ERTA luciferase; difference in metabolism positive and negative), Deisenroth Lab (AID 2284041);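 note: shift is response with S9 minus without S9 so positive means metabolism raised ER signal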
Active and inactive are the calls of the source. Rule for the calls: active = hit-call score of the fitted dose curve at least 0.9, where 1 is the maximum; inactive = score below 0.9.
Possible outcomes: y (active), n (inactive)

chemical.string	class.label
CC1(C)CON(Cc2ccccc2Cl)C1=O	y
Nc1c(Cl)c(Cl)nc(C(=O)O)c1Cl	y
CCOc1nc(F)cc2nc(S(=O)(=O)Nc3c(Cl)cccc3Cl)nn12	n
COC(=O)NC(=S)Nc1ccccc1NC(=S)NC(=O)OC	n
Cc1ccc(N=CN(C)C=Nc2ccc(C)cc2C)c(C)c1	n
CCOP(=S)(OCC)Oc1nc(Cl)n(C(C)C)n1	n
COC(=O)NS(=O)(=O)c1ccc(N)cc1	n
CCSC(=O)N1CCCCCC1	n
CCOP(=O)(OCC)Oc1nc(Cl)c(Cl)cc1Cl	n
CC(C)N1C(=O)c2ccccc2NS1(=O)=O	n
Cc1cc(C)nc(Nc2ccccc2)n1	n
Nc1cnn(-c2ccccc2)c(=O)c1Cl	n
CCCCOCN(C(=O)CCl)c1c(CC)cccc1CC	n

----------
- Read-out: Collagen III, COL3A1 (gene 1281)
- assay.details: BSK_hDFCGF_CollagenIII: BioMAP Diversity Plus: hDFCGF Assay for Collagen III Biomarker Activity (AID 2283056)
- assay.conditions: primary human foreskin fibroblasts; actives raise or lower the signal
The source made the active and inactive calls. How the source made its calls: active means hit-call score of the fitted dose curve at least 0.9, where 1 is the maximum; inactive means score below 0.9.
measure: AC50

compound	measure	value.reported
COP(=S)(OC)Oc1ccc([N+](=O)[O-])c(C)c1	AC50	22.7 µM (active)
N#CN=C1SCCN1Cc1ccc(Cl)nc1	AC50	inactive
CCNC(=O)NC(=O)C(C#N)=NOC	AC50	inactive
CNC(=O)N(C)c1nnc(C(C)(C)C)s1	AC50	inactive
CCOc1cc(C(C)(C)C)ccc1C1COC(c2c(F)cccc2F)=N1 (stereo not given)	AC50	5.45 µM (active)
CSC(=O)c1c(C(F)F)nc(C(F)(F)F)c(C(=O)SC)c1CC(C)C	AC50	inactive
COc1cc(OC)nc(NC(=O)NS(=O)(=O)c2ncccc2OCC(F)(F)F)n1	AC50	inactive
COC(=O)NC(=S)Nc1ccccc1NC(=S)NC(=O)OC	AC50	inactive
Cc1ccc(N=CN(C)C=Nc2ccc(C)cc2C)c(C)c1	AC50	13.3 µM (active)
CC(C)Oc1cccc(NC(=O)c2ccccc2C(F)(F)F)c1	AC50	inactive
CC(C)Nc1nc(Cl)nc(NC(C)C)n1	AC50	inactive
Cn1c(-c2ccccc2)cc(-c2ccccc2)[n+]1C	AC50	10.1 µM (active)
Cc1nc(N(C)C)nc(OC(=O)N(C)C)c1C	AC50	inactive
CCCCC(O)(Cn1cncn1)c1ccc(Cl)cc1Cl (stereo not given)	AC50	29.9 µM (active)
CO/N=C(/C1=NOCCO1)c1ccccc1Oc1ncnc(Oc2ccccc2Cl)c1F	AC50	inactive
CCNP(=S)(OC)O/C(C)=C/C(=O)OC(C)C (stereo not given)	AC50	inactive
CNC(=O)Oc1cccc2ccccc12	AC50	inactive
C=CCOC(=O)C(C)(C)OC(=O)c1cc(-n2c(=O)cc(C(F)(F)F)n(C)c2=O)ccc1Cl	AC50	inactive
COc1ccc(-c2ccccc2)cc1NNC(=O)OC(C)C	AC50	inactive
N#Cc1c[nH]cc1-c1cccc2c1OC(F)(F)O2	AC50	inactive
O=C(Nc1ccccc1-c1ccc(Cl)cc1)c1cccnc1Cl	AC50	inactive
CS(=O)(=O)c1cc(C(F)(F)F)ccc1C(=O)c1cnoc1C1CC1	AC50	inactive
CC1(C)C(C=C(Cl)Cl)C1C(=O)OC(C#N)c1cccc(Oc2ccccc2)c1 (stereo not given)	AC50	inactive
CC(C)(C)C(=O)C(Oc1ccc(Cl)cc1)n1cncn1 (stereo not given)	AC50	inactive
O=c1n(Cl)c(=O)n(Cl)c(=O)n1Cl	AC50	inactive
